- tested system: UniProt Q9H244
- Sequence (Q9H244 whole entry): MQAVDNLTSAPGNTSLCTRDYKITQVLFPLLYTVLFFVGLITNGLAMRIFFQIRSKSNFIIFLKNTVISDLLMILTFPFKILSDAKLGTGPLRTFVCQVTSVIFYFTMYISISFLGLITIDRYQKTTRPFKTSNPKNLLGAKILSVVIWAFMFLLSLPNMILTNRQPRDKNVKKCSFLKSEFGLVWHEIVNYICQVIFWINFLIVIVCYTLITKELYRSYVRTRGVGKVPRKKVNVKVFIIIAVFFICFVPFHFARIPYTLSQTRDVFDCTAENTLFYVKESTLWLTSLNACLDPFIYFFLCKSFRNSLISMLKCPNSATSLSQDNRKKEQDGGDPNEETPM
- experiment notes: Displacement of [3H]-2-methyl-thio-adenosine 5'-diphosphate from human recombinant P2Y12 expressed in CHO cell membranes by scintillation counting method
endpoint name: IC50 (nM)
Write the answer as a number in nM, unit excluded.

Please review the following examples before continuing.
{"molecule": "CCOC(=O)N1CCN(C(=O)[C@H](CCC(=O)O)NC(=O)c2cc(C(C)(C)O)nc(-c3ccccc3)n2)CC1", "endpoint name": "IC50", "unit info": "nM", "recorded measurement": 35}
{"molecule": "CCOC(=O)N1CCN(C(=O)[C@H](CCC(=O)O)NC(=O)c2cc(NS(=O)(=O)c3ccccc3)nc(-c3ccccc3)n2)CC1", "endpoint name": "IC50", "unit info": "nM", "recorded measurement": 266}
{"molecule": "CCOC(=O)N1CCN(C(=O)[C@H](CCC(=O)O)NC(=O)c2cc(NCCCO)nc(-c3ccccc3)n2)CC1", "endpoint name": "IC50", "unit info": "nM", "recorded measurement": 279}

Query molecule follows.
Given the entry CCCCOC(=O)N1CCN(C(=O)[C@H](CCC(=O)O)NC(=O)c2cc([C@H]3C[C@H]3COC)nc(-c3ccccc3)n2)CC1 (racemic) , report its measured IC50. 9

Numbers sourced from ChEMBL document CHEMBL3351863.
